Cited source for all entries: the supplement of paper PMC10567573

Give measured protein stability index for each item. Keep answers brief.
B1: PI4K2A (parent)
chain: FVKDPQGRIIAVFKPKNEEPYGHL

Variants of: B1
Assay: protein stability index of a GFP-peptide fusion (GPS, HEK-293T) (PSI 1-6); higher = more stable;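 further: lentivirally expressed fusions sorted by FACS into six bins by GFP to DsRed ratio, PSI derived from sequencing read proportions per bin multiplied by bin number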
Conditions: c terminus: a fixed tail appended
Lab note: record just the number, no unit beside it.

-- ask Which protein stability index is reported for this variant? FVKDPQGRIIAVFNPKNEEPYGHL
-- reply 1.13

-- ask Same lookup for FVKSPQGRIIAVFKPKNEEPYGHL , please.
-- reply 1.7

-- ask Okay, and FVKDPQGRIIAVFKPKNEEPYGHD ?
-- reply 2.03

-- ask Subsequent entry: FVKDPQGRIIAVFKPKNEEPYHHL
-- reply 1.88

-- ask Now try FVKDPQGRIIAVFKPKNEEPYGEL .
-- reply 1.62

-- ask Entry to check: FVKDPQGRIIAVFKPKNEEPYGQL
-- reply 1.56

-- ask FVKDPQGRIIAVFKPNNEEPYGHL ?
-- reply 1.68

-- ask And what about the variant FVKDPWGRIIAVFKPKNEEPYGHL ?
-- reply 1.7

-- ask Now give it for FVKDQQGRIIAVFKPKNEEPYGHL too.
-- reply 2.83

-- ask Note, next up: FVKDPQGRIIAVFKPKNEEPWGHL
-- reply 2.26

-- ask Do the same for FVKDPQGRIIAVFKPKNEEHYGHL please
-- reply 1.74

-- ask Please give the result for FVKDPQGRIIAVFKPKNEEPTGHL too.
-- reply 1.74

-- ask Now the variant FTKDPQGRIIAVFKPKNEEPYGHL
-- reply 1.94

-- ask Try this variant too: FVKDPQGRIILVFKPKNEEPYGHL
-- reply 1.61

-- ask Queued: FVKDPQGRIIAVFKPKNEEPYDHL
-- reply 1.74

-- ask Next record, please: FVKDPQGRIIAVFTPKNEEPYGHL
-- reply 2.17
